Values were extracted from PubChem BioAssay (NCATS).

Would you kindly list viability, percent of control for each of these compounds?
assay: Cell Proliferation Assay against the HBL1 Cell Line (AID 651646); conditions: HBL1 DLBCL cells; at 46.1 µM (top of the series);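 further: cells exposed to compound for 48 h before reading; 100% = DMSO and 0% = 9.2 µM bortezomib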
Answer with a number only, understood to be in %.

Please fill in: viability, percent of control reported for CCCCC/C=C\C/C=C\C/C=C\C/C=C\CCCC(=O)NC1CC1 = 109

Please fill in: viability, percent of control reported for CNC(=O)N1N=C(c2ccc(N)cc2)c2cc3c(cc2CC1C)OCO3 (centres undefined) = 20

Please fill in: viability, percent of control reported for COC[C@H]1OC(=O)c2coc3c2[C@@]1(C)C1=C(C3=O)C2CCC(=O)[C@@]2(C)C[C@H]1OC(C)=O (some centres undefined) = 61.7

Please fill in: viability, percent of control reported for CC1=C2C[C@@H]3[C@@H](CC=C4C[C@@H](O)CC[C@@]43C)[C@@H]2CC[C@]12O[C@H]1C[C@H](C)CN[C@H]1[C@H]2C = 69.1
